Attribution: paper PMC6112376

system: rat primary hepatocytes; experiment: MMP assay in rat primary hepatocytes; conditions: Rattus norvegicus, Hepatocyte, read-out: MMP assays IC50 (µM) Rat Hepatocytes
Let's look at some compounds and their measured IC50.
State the result as a value with its unit after it.

Below, each entry is followed by its recorded IC50 result.
COMPOUND	IC50
Nc1ccc2c(c1)C(=O)c1ccccc1C2=O	3.57 µM
C[C@@H]1C[C@H]2[C@@H]3CCC4=CC(=O)C=C[C@]4(C)[C@@]3(Cl)[C@@H](O)C[C@]2(C)[C@@]1(OC(=O)c1ccco1)C(=O)CCl [Mometasone furoate]	14 µM
Nc1ccc(-c2ccc(N)cc2)cc1	2.51 µM

Let us move to another entry and its IC50.
Identify IC50 associated with the compound CO[C@H]1/C=C/O[C@@]2(C)Oc3c(C)c(O)c4c(O)c(c(/C=N/N5CCN(C)CC5)c(O)c4c3C2=O)NC(=O)/C(C)=C\C=C\[C@H](C)[C@H](O)[C@@H](C)[C@@H](O)[C@@H](C)[C@H](OC(C)=O)[C@@H]1C [Rifampicin, reference compound]
6.15 µM

* * *

system: HepG2 cells; experiment: Intracellular ATP content (cell viability) assay; assay type: cell-based, human; conditions: read-out: ATP (HepG2, glucose) IC50
MEASURED_ATTRIBUTE: IC50 (µM)
Supply the numeric figure in µM, leaving out any unit text.

Identify IC50 associated with the compound CO/C=C(/C(=O)OC)c1ccccc1COc1cccc(C(F)(F)F)n1 [Picoxystrobin]
3.61

* * *

system: rat primary hepatocytes; assay: MMP assay in rat primary hepatocytes; details: rat hepatocytes; mean ± SD of three experiments
Where a name gives a salt, the structure may show the parent alone.
Label label 1 when MMP assays efficacy (%) Rat Hepatocytes >= -70%; otherwise label 0.

COMPOUND	DISCRETE_LABEL
C[C@@H]1C[C@H]2[C@@H]3CCC4=CC(=O)C=C[C@]4(C)[C@@]3(Cl)[C@@H](O)C[C@]2(C)[C@@]1(OC(=O)c1ccco1)C(=O)CCl [Mometasone furoate]	label 1
O=C(Nc1ccc(O)cc1)c1ccccc1O	label 0
COC(=O)C1=C(C)NC(C)=C(C(=O)OC(C)(C)CN(C)CCC(c2ccccc2)c2ccccc2)C1c1cccc([N+](=O)[O-])c1 (centres unmarked) [Lercanidipine hydrochloride]	label 0
CCC(CC)(CC(=O)Nc1cccc(/C=C/c2nc(C3CCC3)cs2)c1)C(=O)O	label 1
C#C[C@]1(O)CC[C@H]2[C@@H]3CCC4=CC(=NO)CC[C@@H]4[C@H]3CC[C@@]21CC (mixture of isomers)	label 1

Hello, I need to know if `Cc1cc(C(C)(C)C)c(O)c(C)c1Cn1c(=O)n(Cc2c(C)cc(C(C)(C)C)c(O)c2C)c(=O)n(Cc2c(C)cc(C(C)(C)C)c(O)c2C)c1=O` has measured MMP assays efficacy (%) Rat Hepatocytes not below -70%. Thanks!
label 1

Hello, I need to know if CCCCCCCCCCCCOC(=O)c1cc(O)c(O)c(O)c1 [Dodecyl gallate] has measured MMP assays efficacy (%) Rat Hepatocytes not below -70%. Thanks!
label 1

Hello, I need to know if `CCN=C1C=CC(=C(c2ccc(N(CC)CC)cc2)c2ccc(N(CC)CC)cc2)c2ccccc21.Cl` has measured MMP assays efficacy (%) Rat Hepatocytes not below -70%. Thanks!
label 0

Hello, I need to know if `CC(C)(C)CC(C)(C)c1ccc(O)c(Cc2ccc(Cl)cc2Cl)c1` has measured MMP assays efficacy (%) Rat Hepatocytes not below -70%. Thanks!
label 1

Hello, I need to know if `Cc1cc(O)c(C(C)(C)C)cc1Sc1cc(C(C)(C)C)c(O)cc1C` has measured MMP assays efficacy (%) Rat Hepatocytes not below -70%. Thanks!
label 0

* * *

system: isolated rat liver mitochondria; test: Oxygen consumption, Clark-type oxygen electrode; assay type: biochemical; conditions: 20 µM
Let's look at some molecules and their measured I-sub, % of control (O2 consumption rate).

Below, each entry is followed by its recorded I-sub, % of control (O2 consumption rate) result.
MOLECULE	TARGET_UNDER_TEST	REPORTED_RESULT
O=C(Nc1ccccc1)Nc1cnns1	isolated rat liver mitochondria	311 (40.8) % of control
N#CC(C#N)=NNc1ccc(OC(F)(F)F)cc1 [FCCP, reference compound]	isolated rat liver mitochondria	278 (38.5) % of control
CO/C=C(/C(=O)OC)c1ccccc1COc1cccc(C(F)(F)F)n1	isolated rat liver mitochondria	34 (3.8) % of control
O=C(Nc1ccc(Oc2ccc(Cl)cc2)c(Cl)c1)c1cc(I)cc(I)c1O [Rafoxanide, reference compound]	isolated rat liver mitochondria	116 (13.0) % of control

With isolated rat liver mitochondria as the test system, provide measured I-sub, % of control (O2 consumption rate) for this molecule: `CC(C)c1cccc(C(C)C)c1N1C(=O)c2ccc(O)cc2C1=O`
296 (47.6) % of control

With isolated rat liver mitochondria as the test system, provide measured I-sub, % of control (O2 consumption rate) for this molecule: `O=C(Nc1ccccc1)Nc1ccccc1`
144 (15.5) % of control

With isolated rat liver mitochondria as the test system, provide measured I-sub, % of control (O2 consumption rate) for this molecule: `CCOCn1c(-c2ccc(Cl)cc2)c(C#N)c(Br)c1C(F)(F)F`
324 (42.4) % of control

* * *

Let's look at some compounds and their measured MMP assays efficacy (%) Rat Hepatocytes.
tested on: rat primary hepatocytes; experiment: MMP assay in rat primary hepatocytes; conditions: rat hepatocytes; mean ± SD of three experiments

COMPOUND	MMP assays efficacy (%) Rat Hepatocytes
C[C@H]1C[C@H]2[C@@H]3CCC4=CC(=O)C=C[C@]4(C)[C@@]3(F)[C@@H](O)C[C@]2(C)[C@@]1(O)C(=O)CCl [Clobetasol]	-64±43%

Identify MMP assays efficacy (%) Rat Hepatocytes associated with the compound CCCCCCCCCCn1cc[n+](C)c1.O=S(=O)([O-])C(F)(F)F [1-Decyl-3-methylimidazolium trifluoromethanesulfonate]
-125±47%

Identify MMP assays efficacy (%) Rat Hepatocytes associated with the compound O=C(O)Cc1cc(I)c(Oc2cc(I)c(O)c(I)c2)c(I)c1 [3,3',5,5'-Tetraiodothyroacetic acid]
-110±24%

* * *

test system: rat primary hepatocytes; experiment: MMP assay in rat primary hepatocytes; settings: Rattus norvegicus, Hepatocyte, read-out: MMP assays IC50 (µM) Rat Hepatocytes
MEASURED_ATTRIBUTE: IC50 (µM)
Supply the numeric figure in µM, leaving out any unit text.

MOLECULE	MEASURE_UNIT	IC50
CN1C(=O)/C(=N\NC(N)=S)c2ccccc21 [Methisazone]	µM	21.5
CCCCCCCCCCCCOC(=O)c1cc(O)c(O)c(O)c1 [Dodecyl gallate]	µM	48.7
CCc1cc(Cc2cc(CC)cc(C(C)(C)C)c2O)c(O)c(C(C)(C)C)c1	µM	5.01
CCCCC(=O)O[C@]1(C(=O)CO)[C@H](C)C[C@H]2[C@@H]3CCC4=CC(=O)C=C[C@]4(C)[C@@]3(F)[C@@H](O)C[C@@]21C [Dexamethasone valerate]	µM	23.5
O=c1cc(-c2ccc(O)cc2)oc2cc(O)cc(O)c12 [Apigenin]	µM	28.9

Identify IC50 associated with the molecule CC1(C)[C@@H](O)CC[C@]2(C)[C@H]3C(=O)C=C4[C@@H]5C[C@@](C)(C(=O)O)CC[C@]5(C)CC[C@@]4(C)[C@]3(C)CC[C@@H]12 [Glycyrrhetinic acid]
15.6

Identify IC50 associated with the molecule CC1=NN(c2ccccc2)C(=O)C1 [Compound 1-Phenyl-3-methyl-5-pyrazolone]
25.8

Identify IC50 associated with the molecule CN(C)C(=S)SSC(=S)N(C)C [THIRAM]
16.5

* * *

system: rat primary hepatocytes; test: MMP assay in rat primary hepatocytes; details: read-out: MMP assays IC50 (µM) Rat Hepatocytes; rat hepatocytes; mean ± SD of three experiments
Let's look at some molecules and their measured IC50.

Below, each entry is followed by its recorded IC50 result.
MOLECULE	IC50
O=Cc1c2ccccc2c(Cl)c2ccccc12	24.3 µM
CCN(C(=O)N(CC)c1ccccc1)c1ccccc1 [N,Nφ-Diethylcarbanilide]	13.1 µM
Cl.N=C1C=CC(=C(c2ccc(N)cc2)c2ccc(N)cc2)C=C1 [C.I. Basic red 9 monohydrochloride]	4.11 µM

Let us move to another entry and its IC50.
Identify IC50 associated with the molecule CCCCCCCC[n+]1ccn(C)c1.O=S(=O)([O-])C(F)(F)F [1-Methyl-3-octylimidazolium trifluoromethanesulfonate]
31.6 µM

* * *

system: HepG2 cells; settings: read-out: MMP assays IC50 (µM) HepG2; HepG2 cells; single number from one experiment
Let's look at some molecules and their measured IC50.
Supply the numeric figure in µM, leaving out any unit text.

Below, each entry is followed by its recorded IC50 result.
MOLECULE	IC50 (µM)
Nc1cc(Cl)c([N+](=O)[O-])cc1O	25.1
CC[C@H](NC(=O)c1cc(F)ccc1[N-]S(=O)(=O)c1cccc2cccnc12)c1ccccc1.[Na+]	11.2
Cc1cc(C(=C2C=CC(=N)C=C2)c2ccc(N)cc2)ccc1N	0.87
CCCCCCCCCCCCCC[P+](CCCCCC)(CCCCCC)CCCCCC.F[P-](F)(F)(F)(F)F [Trihexyltetradecylphosphonium hexafluorophosphate]	1.12
Nc1ccc2cc3ccc(N)cc3nc2c1.Nc1ccc2cc3ccc(N)cc3nc2c1.O=S(=O)(O)O [Proflavin hemisulfate]	3.46
Cl.N=C1C=CC(=C(c2ccc(N)cc2)c2ccc(N)cc2)C=C1 [C.I. Basic red 9 monohydrochloride]	0.56

With HepG2 cells as the test system, provide measured IC50 for this molecule: Oc1ccc2cc(SSc3ccc4cc(O)ccc4c3)ccc2c1 [6-Hydroxy-2-naphthyl disulfide]
28.2

With HepG2 cells as the test system, provide measured IC50 for this molecule: Nc1ccc(NC(=O)c2ccc(N)cc2)cc1 [4,4'-Diaminobenzanilide]
7.08

With HepG2 cells as the test system, provide measured IC50 for this molecule: `O=C(c1ccccc1)c1cc(Cl)ccc1O`
39.8

With HepG2 cells as the test system, provide measured IC50 for this molecule: CC(=O)C1(C)CC2=C(CCCC2(C)C)CC1C (stereo not drawn)
35.5

With HepG2 cells as the test system, provide measured IC50 for this molecule: `Cl.Nc1ccc(/N=N/c2ccccc2)c(N)c1`
19.9
